test: TOR pathway RPL19A-GFP modulators, concentration series – cell-based, S. cerevisiae, flow cytometry, MLPCN hits, dose response (AID 2740);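 note: background is signal of the same compound in parental non-GFP s288c yeast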; details: S. cerevisiae RPL19A-GFP strain, flow cytometry fluorescence, 3 h; at 33 µM (top of the series)
Measured Parameter: GFP fluorescence, lower = active (kMESF (background-subtracted))
Number only, please.

Solved cases below.
COc1ccc(NC(=O)/C(Cl)=C(/Cl)S(=O)Cc2ccccc2)cn1 (stereo not drawn): 35.8
Cc1ccc(/C(N)=N/OC(=O)c2ccc(F)cc2)cc1: 43.7
O=[N+]([O-])c1c(Nc2ccccn2)cc(Cl)c2nonc12: 68.3

Would you kindly share the measured GFP fluorescence, lower = active (kMESF (background-subtracted)) for `Cc1cccc(Nc2nc(-c3ccccn3)cs2)n1` ? 29.8

Find the recorded GFP fluorescence, lower = active (kMESF (background-subtracted)) belonging to `O=[N+]([O-])c1ccc(-c2cn3nc(-c4ccccc4)c(-c4ccccc4)nc3n2)cc1` and report it. 48.8
